Target: MAPK13 (human)
Assay: KINOMEscan competition binding
Details: compound 10.0 µM
REPORTED PROPERTY: kinase still bound, per cent of control (%)
Lab book: enter the figure in %, no units written.

Query: Look up kinase still bound, per cent of control for this molecule: COc1cc(C)c(Sc2cnc(NC(=O)c3ccc(CNC(C)C(C)C)cc3)s2)cc1C(=O)N1CCN(C(C)=O)CC1 (centres undefined)
Response: 100

Query: Look up kinase still bound, per cent of control for this molecule: CC1=C(C(=O)Nc2cc3cn[nH]c3cc2F)C(c2ccc(C(F)(F)F)cc2)CC(=O)N1 (centres undefined)
Response: 98

Query: Look up kinase still bound, per cent of control for this molecule: CCOc1cc(N2CCC(O)CC2)ccc1Nc1ncc2c(n1)N(C)c1ccccc1C(=O)N2C
Response: 100

Query: Look up kinase still bound, per cent of control for this molecule: C=CC(=O)Nc1ccc(C(=O)c2sc(Nc3ccc(N4CCN(C)CC4)cc3OC)nc2N)cc1
Response: 100

Query: Look up kinase still bound, per cent of control for this molecule: CCN1CCN(Cc2ccc(NC(=O)c3ccc(C)c(/C=C/c4cnc5[nH]ccc5c4OC)c3)cc2C(F)(F)F)CC1
Response: 22

Query: Look up kinase still bound, per cent of control for this molecule: Cc1cn(-c2cc(C(=O)Nc3ccc(C)c(NC(=O)c4ccno4)c3)cc(C(F)(F)F)c2)cn1
Response: 100

Query: Look up kinase still bound, per cent of control for this molecule: O=c1[nH]c2ccccc2n1C1CCN(Cc2ccc(-c3nc4cc5[nH]cnc5cc4nc3-c3ccccc3)cc2)CC1
Response: 100

Query: Look up kinase still bound, per cent of control for this molecule: COc1cc2ncnc(Nc3cccc(Cl)c3)c2cc1OC
Response: 100

Query: Look up kinase still bound, per cent of control for this molecule: COc1cc2c(Nc3ccc(NC(=O)c4ccccc4)cc3)ncnc2cc1OCCCN1CCOCC1
Response: 40
